Sourced from the nanobody polyreactivity screen of Harvey et al. (2022)

assay: yeast display, Sf9 membrane polyspecificity reagent, FACS + sequencing; frameworks hold sequencing errors

{"ORDERED_RESIDUES": "QVQLVESGGGLVQAGGSLRLSCAASGITFNYNAMGWYRQAPGKERELVARITWSGTRTYYADSVKGRYTISRDNAKNTVYLQMNSLKPEDTAVYYCNADPYARYYWGQGTQVTVSS", "polyreactivity (PSR sort gate)": "high polyreactivity"}
{"ORDERED_RESIDUES": "QVQLVESGGGLVQAGGSLRLSCAASGYTFTQNAMGWYRQAPGKERELVASITSGGSTDYADSVKGRFTISRDNAKNTVYLQMNSLKPEDTAVYYCAKDYYAYSDYDYWGQGTQVTVSS", "polyreactivity (PSR sort gate)": "low polyreactivity"}
{"ORDERED_RESIDUES": "QVQLVESGGGLDQAGGSLRLSCAASGSTFSFYAMGWYRQAPGKERELVAAISRSGGCKFYADYVKGRFSISRDNEKNTVYLQMNRLKPEDTAVYYCAAKSAVVVGMDSWGQGTQVTVSS", "polyreactivity (PSR sort gate)": "high polyreactivity"}
{"ORDERED_RESIDUES": "QVQLVESGGGLVQAGGSLRLSCAASGSTFDNYAMGWNRQAPGKERELVADITWSGGSTYYADSVKGRFTSSRDNAKNTVYLQMNSLKPEDSAVYYCNSAGYYTKYDYWGQGTQVTVSS", "polyreactivity (PSR sort gate)": "low polyreactivity"}
{"ORDERED_RESIDUES": "QVQLVESGGGLVQAGGSLRLSCAATGLTFKENVMGWYRQAPGKERELVAAISTGASTYYADSVNGRFTISRDNAKNTVYLQMNSLKPEDTAVYYCAKRVTPWYGYWGQGTQVTVSS", "polyreactivity (PSR sort gate)": "high polyreactivity"}

---

test: yeast display, Sf9 membrane polyspecificity reagent, FACS + sequencing; frameworks hold sequencing errors
MEASURED_PARAMETER: polyreactivity (PSR sort gate)

{"ORDERED_RESIDUES": "QVQLVESGGGLVQAGGRLPLSCAASGFIFGDYTMGWYRQAPGKERELVASISRRGGSTTYADSVKGRFTISRDNAMNTVYLQMNSLKPEDTAVYYCAARSRPSGSYNRHGPVDYWGQGTQVTVSS", "MEASURED_PARAMETER": "polyreactivity (PSR sort gate)", "RECORDED_MEASUREMENT": "high polyreactivity"}
{"ORDERED_RESIDUES": "QVQLVESGGGLVQAGGSLRLSCAASGSIFQRYTMGWYIQAPGKERELVAAISWSGDGTYYADSVKGRFTISRDNAKNTFYLQMNSLKPEDTAVYYCNDGYTRRYRFRVENDYDYWGQGTQVTVSS", "MEASURED_PARAMETER": "polyreactivity (PSR sort gate)", "RECORDED_MEASUREMENT": "high polyreactivity"}

---

assay: yeast display, Sf9 membrane polyspecificity reagent, FACS + sequencing; frameworks hold sequencing errors

{"ORDERED_RESIDUES": "QVQLVESGGGLVQAGGSLRLSCAASGSTFRGNAMGWYRQAPGKERELVATISRSNGGSTYYADSVKGRFTISRDIAKNTVYLQMNSLKPEDTEVYYCAARSYIGISTYGYWGLGTQVTVSS", "polyreactivity (PSR sort gate)": "low polyreactivity"}
{"ORDERED_RESIDUES": "QVQLVESGGGLVQAGGSLRLSCAASGSTFSSYAMGWYRQAPGKERELVAATYYADSVKGRFTISRDNAKNTVYLQMNSLKPEDTAVYYCNADNDYQGGKEYDYWGQGTQVTVSS", "polyreactivity (PSR sort gate)": "low polyreactivity"}
